# testTarget: ADAMTS4 (Homo sapiens, UniProt O75173)
# Sequence (O75173 213-685 limits assumed): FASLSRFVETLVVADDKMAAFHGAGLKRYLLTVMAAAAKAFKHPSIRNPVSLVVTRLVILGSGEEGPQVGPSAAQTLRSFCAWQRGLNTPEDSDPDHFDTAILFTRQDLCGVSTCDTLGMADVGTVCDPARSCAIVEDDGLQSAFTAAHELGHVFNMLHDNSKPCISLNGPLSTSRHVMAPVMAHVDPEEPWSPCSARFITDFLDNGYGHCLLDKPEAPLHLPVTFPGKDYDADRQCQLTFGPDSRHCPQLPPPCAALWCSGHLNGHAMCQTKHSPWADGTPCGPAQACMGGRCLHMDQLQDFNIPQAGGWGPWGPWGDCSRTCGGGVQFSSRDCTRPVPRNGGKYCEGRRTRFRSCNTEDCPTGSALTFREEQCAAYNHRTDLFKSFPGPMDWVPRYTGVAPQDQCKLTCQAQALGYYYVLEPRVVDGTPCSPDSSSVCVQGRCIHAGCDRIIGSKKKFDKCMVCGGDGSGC
pIC50: −log10 of the molar value.
Entry flag: yes if pIC50 reaches 6; no if it does not.

# input Evaluate O=C1NC(=O)C(CNC(=O)c2cnn(-c3cccc(F)c3)n2)(c2nccs2)N1 (racemic) [Example 108] : pIC50 at minimum 6?
# output yes

# input Evaluate Cn1ccnc1C1(CNC(=O)c2cnn(-c3ccccc3)n2)NC(=O)NC1=O (centres unmarked) [Example 142] : pIC50 at minimum 6?
# output yes

# input Evaluate O=C1NC(=O)[C@](CNC(=O)c2cnn(-c3ccccn3)n2)(C2CC2)N1 [Example 47] : pIC50 at minimum 6?
# output no

# input Evaluate O=C1NC(=O)C(CNC(=O)c2cnn(-c3ccc(F)cc3)n2)(c2ncsc2C(F)(F)F)N1 (racemic) [Example 135] : pIC50 at minimum 6?
# output no

# input Evaluate O=C1NC(=O)[C@](CNC(=O)c2cnn(-c3cccc(F)c3)n2)(C2CC2)N1 [Example 1] : pIC50 at minimum 6?
# output yes
